Target: Butyrylcholinesterase (Rattus norvegicus, UniProt Q9JKC1)
Sequence (Q9JKC1 whole entry): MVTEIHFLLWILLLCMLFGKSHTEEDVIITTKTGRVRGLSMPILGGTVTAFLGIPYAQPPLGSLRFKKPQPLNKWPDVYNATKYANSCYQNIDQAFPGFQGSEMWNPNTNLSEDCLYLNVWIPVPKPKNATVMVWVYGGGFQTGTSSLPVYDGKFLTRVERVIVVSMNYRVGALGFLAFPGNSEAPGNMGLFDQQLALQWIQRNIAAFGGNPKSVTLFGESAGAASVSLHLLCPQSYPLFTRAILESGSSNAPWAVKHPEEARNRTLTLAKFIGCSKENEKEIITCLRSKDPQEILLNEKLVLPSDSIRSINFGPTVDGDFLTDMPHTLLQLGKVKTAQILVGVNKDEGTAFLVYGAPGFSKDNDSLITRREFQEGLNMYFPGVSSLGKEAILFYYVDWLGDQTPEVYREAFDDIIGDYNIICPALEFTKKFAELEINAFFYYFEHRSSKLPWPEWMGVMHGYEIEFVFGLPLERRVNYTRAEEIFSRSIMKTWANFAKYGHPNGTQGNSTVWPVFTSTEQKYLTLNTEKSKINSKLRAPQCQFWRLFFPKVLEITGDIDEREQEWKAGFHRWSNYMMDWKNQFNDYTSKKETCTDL
Assay: In vitro inhibitory concentration against butyrylcholinesterase (BuChE) obtained from rat plasma
Assay type: cell-free
pIC50: −log10 of the molar value.
Readout Kind: pIC50

{"Sample Smiles": "CNC(=O)Oc1ccc2c(c1)[C@]1(C)CCN(C)[C@@H]1N2C", "Numeric Readout": 8.09}

---

Catalogue of compounds with associated IC50
Molecular target: Acetylcholinesterase (Mus musculus, UniProt P21836)
Sequence (P21836 whole entry): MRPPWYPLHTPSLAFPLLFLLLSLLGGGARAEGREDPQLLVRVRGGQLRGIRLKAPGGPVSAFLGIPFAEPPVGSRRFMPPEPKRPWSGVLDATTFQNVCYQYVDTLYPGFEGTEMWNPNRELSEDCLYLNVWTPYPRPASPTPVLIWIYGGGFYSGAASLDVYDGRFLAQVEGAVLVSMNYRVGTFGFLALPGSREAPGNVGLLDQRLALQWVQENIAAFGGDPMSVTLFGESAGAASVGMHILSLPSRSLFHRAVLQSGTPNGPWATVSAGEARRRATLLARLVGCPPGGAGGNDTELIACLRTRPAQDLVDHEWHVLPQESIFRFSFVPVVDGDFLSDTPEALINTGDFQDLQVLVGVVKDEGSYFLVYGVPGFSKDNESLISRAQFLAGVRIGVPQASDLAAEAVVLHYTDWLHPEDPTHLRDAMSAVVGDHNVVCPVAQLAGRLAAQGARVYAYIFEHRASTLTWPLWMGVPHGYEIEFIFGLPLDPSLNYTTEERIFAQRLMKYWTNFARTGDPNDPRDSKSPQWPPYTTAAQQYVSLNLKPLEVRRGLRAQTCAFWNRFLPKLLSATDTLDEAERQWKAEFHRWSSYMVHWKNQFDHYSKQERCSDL

{"Sample Smiles": "CC(=O)N(C)CCC1CCN(Cc2ccccc2)CC1", "IC50 / nM": 660}
{"Sample Smiles": "COc1ccc(N(CCC2CCN(Cc3ccccc3)CC2)C(C)=O)cc1", "IC50 / nM": 700}
{"Sample Smiles": "CN1CCC(CCN2C(=O)c3ccc([N+](=O)[O-])cc3C2=O)CC1", "IC50 / nM": 6800}
{"Sample Smiles": "CCC(=O)N(CCC1CCN(Cc2ccccc2)CC1)c1ccccc1", "IC50 / nM": 830}
{"Sample Smiles": "CC(=O)N(CCC1CCN(Cc2ccccc2)CC1)c1ccncc1", "IC50 / nM": 108}
{"Sample Smiles": "O=C1Cc2ccccc2C(=O)N1CCC1CCN(Cc2ccccc2)CC1", "IC50 / nM": 23}
{"Sample Smiles": "CC(=O)N(CCC1CCN(Cc2ccccc2)CC1)c1cccc(F)c1", "IC50 / nM": 65}
